target_system: Bromodomain-containing protein 4 (Homo sapiens, UniProt O60885)
measurement_notes: Binding affinity to partial length human BRD4 bromodomain 1 by isothermal titration calorimetry
readout_label: Kd (µM)

Dear colleague, I am looking for the recorded Kd of the following molecule: CCc1c(C(=O)Nc2cccc(S(=O)(=O)N(CC)CC)c2)[nH]c(C)c1C(C)=O 5.7

Dear colleague, I am looking for the recorded Kd of the following molecule: CCc1c(C(=O)Nc2cccc(OCC(N)=O)c2)[nH]c(C)c1C(C)=O 5.8

Dear colleague, I am looking for the recorded Kd of the following molecule: CCc1c(C(=O)Nc2ccc(F)c(S(=O)(=O)N3CCOCC3)c2)[nH]c(C)c1C(C)=O 1.3

(a) CCc1c(C(=O)Nc2cc(S(=O)(=O)Nc3ccccc3OC)ccc2O)[nH]c(C)c1C(C)=O
(b) CCN(CC)S(=O)(=O)c1ccc(O)c(NC(=O)c2[nH]c(C)c(C(C)=O)c2C)c1
When the recorded Kd values are compared, which is smaller: that of a or that of b ? Label of pick, please. b
